So I've got a bunch of molecules here, and I need their pEC50 values.
molecular target: hGPR120 (Homo sapiens, UniProt Q5NUL3); assay: Measurement of Activity of GPR120 Agonist (Cell-Based Assay), Calcium 5 dye fluorescence; settings: CHO-K1 cells expressing Ga16 and hGPR120
Sequence (Q5NUL3 whole entry): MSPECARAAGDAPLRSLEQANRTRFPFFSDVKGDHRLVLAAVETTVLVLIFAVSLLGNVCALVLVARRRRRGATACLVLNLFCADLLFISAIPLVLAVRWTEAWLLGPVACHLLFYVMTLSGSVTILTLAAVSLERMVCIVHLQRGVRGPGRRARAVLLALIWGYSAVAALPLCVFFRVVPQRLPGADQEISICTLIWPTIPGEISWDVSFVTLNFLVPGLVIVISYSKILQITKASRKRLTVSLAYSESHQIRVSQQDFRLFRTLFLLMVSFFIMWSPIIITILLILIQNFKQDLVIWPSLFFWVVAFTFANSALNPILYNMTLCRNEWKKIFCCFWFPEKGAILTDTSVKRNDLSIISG
pEC50: −log10 of the molar value.

Worked examples, 5 molecules total:
molecule	pEC50
CN(CCCC(=O)O)c1c(F)cc(-c2cccc(N3CCCC3)c2)cc1F	5.70 to 6.70
Cc1cc(OC2CCC2)nc(-c2cc(F)c(OCCCC(=O)O)c(F)c2)c1	> 6.70
O=C(O)CCCCNc1c(F)cc(-c2cccnc2OCC2CC2)cc1F	> 6.70
COc1ccc(-c2cc(F)c(SCCCC(=O)O)c(F)c2)c2c1OC(C)(C)C2	> 6.70
O=C(O)CCCSc1c(F)cc(-c2cccc3c2OC2(CCCC2)C3)cc1F	> 6.70

Dear colleague, could you send me pEC50 for each of the items below? Thanks.
1. CC(C)Sc1ncccc1-c1ccc(N(C)CCCC(=O)O)c(F)c1
2. O=C(O)CCC1CC1c1c(F)cc(-c2cccnc2SC2CCC2)cc1F (stereo not drawn)
3. O=C(O)CCC1CC1c1c(F)cc(-c2cccnc2OC2CCOCC2)cc1F (stereo not drawn)
4. CC(C)Sc1cccc(-c2cc(F)c(OCCCC(=O)O)c(Cl)c2)n1

Given back:
> 6.70
> 6.70
5.70 to 6.70
> 6.70

====

Please provide measured EC50 for the entries that follow.
target: hGPR120 (Homo sapiens); test: Measurement of Activity of GPR120 Agonist (Cell-Based Assay), Calcium 5 dye fluorescence; details: CHO-K1 cells expressing Ga16 and hGPR120

The following compounds have reported results that may help.
compound	EC50
CCSc1ncccc1-c1cc(F)c(C(C)CCCC(=O)O)c(F)c1 (stereo not shown)	< 200 nM
O=C(O)CCC1CCc2cc(-c3cccnc3OC3CCCC3)ccc2O1 (stereo not shown)	< 200 nM
Cc1ccc(OCC2CCC2)cc1-c1cc(F)c(N(C)CCCC(=O)O)c(F)c1	200 to 2000 nM

Please state, for each entry, its recorded EC50.
1. CC(C)Oc1cccc(-c2cc(F)c(N3CCC(CC(=O)O)CC3)c(F)c2)n1
2. O=C(O)C[C@H]1CCN(c2c(F)cc(-c3cccc(OCC4CC4)n3)cc2F)C1
3. Oc1cc(CSc2ccc(-c3cccnc3OC3CCCC3)cc2)on1
4. CC(C)Oc1ncccc1-c1ccc(C(C)(C)CCCC(=O)O)cc1

Given back:
["< 200 nM", "< 200 nM", "< 200 nM", "200 to 2000 nM"]

====

Would you mind telling me the reported EC50 of each entry?
target: hGPR120 (Homo sapiens); test: Measurement of Activity of GPR120 Agonist (Cell-Based Assay), Calcium 5 dye fluorescence; details: CHO-K1 cells expressing Ga16 and hGPR120

Example entries begin here.
compound	EC50
O=C(O)CCCOc1ccc(-c2cccc3c2OC2(CCCC2)O3)cc1 [Example 288]	< 200 nM
O=C(O)CCC1CC1c1c(F)cc(-c2cccnc2OCC2CCC2)cc1F (centres unmarked) [Example 189]	< 200 nM
O=C(O)CC1CCN(c2c(F)cc(-c3cccc(CC4CCCC4)n3)cc2F)CC1 [Example 376]	200 to 2000 nM
Cc1ccc(OCC2CCC2)cc1-c1cc(F)c(OCCCC(=O)O)c(F)c1 [Example 530]	< 200 nM

Consider the record given below.
Asked: Reported EC50 for CCN(CC)c1cncc(-c2cc(F)c(N3CCC(CC(=O)O)CC3)c(F)c2)n1 [Example 355] : what is it?
Given back: 2000 to 20000 nM
